Assay: compound enhancement of TRAIL-induced cell killing – NB7 cells plus caspase-8, luminescence, panel, dose response (AID 652002)
Settings: NB7 neuroblastoma +caspase-8, no TRAIL, compound-alone cytotoxicity counter-screen, luminescence viability; NB7+Caspase-8; run 2; single replicate panel EC50
pEC50: −log10 of the molar value.
Readout: pEC50

Solved entries (count: 5):
Please fill in: pEC50 reported for CCCCc1nc(NCCN)c(C#N)c2c1CSC(C)(C)C2 = < 4.90

Please fill in: pEC50 reported for CCCCCCCn1c2c(c(=N)c3ccccc31)CCC2 = < 4.90

Please fill in: pEC50 reported for O=C(Nc1ccc2[nH]ccc2c1)c1cccs1 = 5.33

Please fill in: pEC50 reported for O=c1[nH]c(=S)[nH]c2c1C(c1ccc(Cl)c(Cl)c1)OC(CCc1ccccc1)C2 (stereo not drawn) = < 4.90

Please fill in: pEC50 reported for O=C(Nc1ccc2ccccc2c1)c1ccc(Cl)cc1 = < 4.90

Each compound below has a recorded value; state its pEC50.
1. CC(C)CCn1cnc2c([nH]c3cccc(Cl)c32)c1=O
2. Cc1cc(-c2ccccc2)nc(Nc2nc3c(C)cccc3c(=O)[nH]2)n1
3. CCOc1ccc(-c2cc(C(=O)N3CCC(C)CC3)c3ccccc3n2)cc1

1. < 4.90
2. < 4.90
3. < 4.90

Each compound below has a recorded value; state its pEC50.
1. CC1(C)N=C(N)N=C(N)N1c1ccc(CCCCc2ccccc2)cc1
2. Cc1onc(-c2c(Cl)cccc2Cl)c1C(=O)ONC(=O)c1ccccc1
3. Cn1nnc(NC(=O)c2ccc(C(C)(C)C)cc2)n1
4. COc1cccc(NC(=O)c2ccc3c(c2)OCO3)c1
5. COc1ccc(-c2cc(C(=O)OCC(=O)Nc3ccc4c(c3)OCO4)c3ccccc3n2)cc1
6. Cc1cc(NC(=O)C2CCCC2)nc2c1c(=O)oc1ccccc12
7. COc1cc(SC#N)ccc1N=Cc1c(C)[nH]n(-c2ccc(Cl)cc2)c1=O

["> 6.41", "< 4.90", 5.23, 4.93, 5.21, "< 4.90", "< 4.90"]

---

Assay: compound enhancement of TRAIL-induced cell killing – NB7 cells plus caspase-8, luminescence, panel, dose response (AID 652002)
Conditions: NB7 neuroblastoma +caspase-8, no TRAIL, compound-alone cytotoxicity counter-screen, luminescence viability; NB7+Caspase-8; run 2; single replicate panel EC50
pEC50: −log10 of the molar value.
Can you tell me pEC50 for the items I'm about to list?

Please fill in: pEC50 reported for COC(=O)CSc1nc2cc(C)ccc2cc1C#N = < 4.90

Each molecule below has a recorded value; state its pEC50.
1. C/C(=N\NC(=O)c1n[nH]c2c1CCC2)c1ccco1
2. O=C(Oc1c(CN2CCOCC2)cc(Cl)c2cccnc12)c1cccs1
3. O=C1c2ccc(Cl)cc2S(=O)(=O)c2cccc(C(=O)N3CCC(Cc4ccccc4)CC3)c21
4. Cc1cccc(CC(=O)Nc2cc(C)c3c(=O)oc4ccccc4c3n2)c1
5. Cc1ccnc(NC(=O)Nc2ccc3c(c2)OCO3)c1

1: < 4.90; 2: < 4.90; 3: < 4.90; 4: < 4.90; 5: < 4.90

Each molecule below has a recorded value; state its pEC50.
1. CCSc1ccc(-c2ccc(C)cc2)nn1
2. Fc1ccc(-c2cnn3c(-c4ccncc4)ccnc23)cc1
3. COCCNc1c(-c2cc3ccc(C)c(C)c3[nH]c2=O)nc2ccccn12
4. Cc1ccc(NC(=O)CSc2nc3ccc(Nc4nc(N5CCOCC5)nc(N5CCOCC5)n4)cc3s2)cc1
5. COc1ccc(NS(=O)(=O)c2cccc(C(=O)N/N=C/c3c(F)c(F)c(F)c(F)c3F)c2)cc1

[5.09, "< 4.90", 5.21, "< 4.90", 4.94]

Each molecule below has a recorded value; state its pEC50.
1. COc1ccc(/C(C)=N/Nc2nncc3ccccc23)cc1
2. COc1ccc(/C=N/Nc2nc3ccccc3c(=O)n2-c2ccccc2)cc1OC
3. O=C1Cc2c(-c3ccccc3)cc(-c3cccc(Cl)c3)nc2-c2ccccc2N1
4. Cc1ccc2oc(-c3cccc(N)c3)nc2c1
5. COC(=O)c1ccc(/C=C(\C#N)c2ccccn2)cc1
6. CCOc1ccc2nc(NC(=O)c3cccc(-c4cc5ccccc5oc4=O)c3)sc2c1
7. CCOC(=O)c1sc(NC(=O)c2cccc(S(=O)(=O)N3CCc4ccccc43)c2)c(C#N)c1C
8. CCOC(=O)c1cccc(-[n+]2c(-c3ccccc3)cc(-c3ccccc3)cc2-c2ccccc2)c1

1. < 4.90
2. 5.01
3. < 4.90
4. 5.10
5. < 4.90
6. < 4.90
7. < 4.90
8. < 4.90
